- System: Mus musculus
- protocol-text: Antinociceptive activity in po dosed mouse assessed as inhibition of acetic acid-induced writhing administered 15 mins before acetic acid challenge
- Type: functional
measure-name: ED50

Input CN(C(=O)/C=C/c1ccco1)[C@@H]1CC[C@@]2(O)[C@H]3Cc4ccc(O)c5c4[C@@]2(CCN3CC2CC2)[C@H]1O5 . Output ED50: 0.015 mg/kg

The reported ED50 of the compound CN(C(=O)/C=C/c1ccoc1)[C@H]1CC[C@@]2(O)[C@H]3Cc4ccc(O)c5c4[C@@]2(CCN3CC2CC2)[C@H]1O5 was 0.13 mg/kg

The recorded ED50 for entry CN(C(=O)/C=C/c1ccccc1)[C@@H]1CC[C@@]2(O)[C@H]3Cc4ccc(O)c5c4[C@@]2(CCN3CC2CC2)[C@H]1O5 equals 0.011 mg/kg

get_value(item= CN(C(=O)/C=C/c1ccc(C(F)(F)F)cc1)[C@@H]1CC[C@@]2(O)[C@H]3Cc4ccc(O)c5c4[C@@]2(CCN3CC2CC2)[C@H]1O5 , readout=ED50) returns 0.026 mg/kg

The compound listed as CN(C(=O)/C=C/c1cccc(F)c1)[C@@H]1CC[C@@]2(O)[C@H]3Cc4ccc(O)c5c4[C@@]2(CCN3CC2CC2)[C@H]1O5 has a reported ED50 of 0.007 mg/kg

Item: CN(C(=O)/C=C/c1cccc([N+](=O)[O-])c1)[C@@H]1CC[C@@]2(O)[C@H]3Cc4ccc(O)c5c4[C@@]2(CCN3CC2CC2)[C@H]1O5 | ED50: 0.22 mg/kg

ED50 reading for CN(C(=O)Cc1ccc(Cl)c(Cl)c1)[C@H]1CC[C@@]2(O)[C@H]3Cc4ccc(O)c5c4[C@@]2(CCN3CC2CC2)[C@H]1O5 : 0.83 mg/kg

The compound listed as CN(C(=O)CCc1ccccc1)[C@@H]1CC[C@@]2(O)[C@H]3Cc4ccc(O)c5c4[C@@]2(CCN3CC2CC2)[C@H]1O5 shows ED50 equal to 0.29 mg/kg

Lookup result for CN(C(=O)/C=C/c1cccc(C(F)(F)F)c1)[C@@H]1CC[C@@]2(O)[C@H]3Cc4ccc(O)c5c4[C@@]2(CCN3CC2CC2)[C@H]1O5 ; measured ED50: 0.034 mg/kg

// sample CN(C(=O)/C=C/c1cccs1)[C@@H]1CC[C@@]2(O)[C@H]3Cc4ccc(O)c5c4[C@@]2(CCN3CC2CC2)[C@H]1O5 , its ED50 was 0.026 mg/kg

ED50 measured on CN(C(=O)/C=C/c1ccsc1)[C@@H]1CC[C@@]2(O)[C@H]3Cc4ccc(O)c5c4[C@@]2(CCN3CC2CC2)[C@H]1O5 = 0.04 mg/kg

Entry under test: CN(C(=O)/C=C/c1ccccc1)[C@H]1CC[C@@]2(O)[C@H]3Cc4ccc(O)c5c4[C@@]2(CCN3CC2CC2)[C@H]1O5 . Its ED50 was 0.032 mg/kg

ED50 recorded for this compound, COc1cccc(/C=C/C(=O)N(C)[C@@H]2CC[C@@]3(O)[C@H]4Cc5ccc(O)c6c5[C@@]3(CCN4CC3CC3)[C@H]2O6)c1 , is 0.0048 mg/kg
